Molecular target: Prostaglandin G/H synthase 1 (Ovis aries, UniProt P05979)
Experiment: Inhibition of ovine COX1 assessed as inhibition of PGF2alpha production from PGH2 by enzyme immuno assay
pIC50: −log10 of the molar value.
Metric name: pIC50

>  <Compound>
CS(=O)(=O)c1ccc(NN2C(=O)CSC2c2ccc(Cl)cc2)cc1 (centres undefined)

>  <pIC50>
4.08

$$$$
>  <Compound>
NS(=O)(=O)c1ccc(NN2C(=O)CSC2c2ccccc2)cc1 (centres undefined)

>  <pIC50>
4.02

$$$$
>  <Compound>
NS(=O)(=O)c1ccc(NN2C(=O)CSC2c2ccc(C(F)(F)F)cc2)cc1 (centres undefined)

>  <pIC50>
4.26

$$$$
>  <Compound>
CS(=O)(=O)c1ccc(NN2C(=O)CSC2c2ccc(C(F)(F)F)cc2)cc1 (centres undefined)

>  <pIC50>
4.21

$$$$

* * *

Biological target: Prostaglandin G/H synthase 1 (Ovis aries, UniProt P05979)
Sequence (P05979 whole entry): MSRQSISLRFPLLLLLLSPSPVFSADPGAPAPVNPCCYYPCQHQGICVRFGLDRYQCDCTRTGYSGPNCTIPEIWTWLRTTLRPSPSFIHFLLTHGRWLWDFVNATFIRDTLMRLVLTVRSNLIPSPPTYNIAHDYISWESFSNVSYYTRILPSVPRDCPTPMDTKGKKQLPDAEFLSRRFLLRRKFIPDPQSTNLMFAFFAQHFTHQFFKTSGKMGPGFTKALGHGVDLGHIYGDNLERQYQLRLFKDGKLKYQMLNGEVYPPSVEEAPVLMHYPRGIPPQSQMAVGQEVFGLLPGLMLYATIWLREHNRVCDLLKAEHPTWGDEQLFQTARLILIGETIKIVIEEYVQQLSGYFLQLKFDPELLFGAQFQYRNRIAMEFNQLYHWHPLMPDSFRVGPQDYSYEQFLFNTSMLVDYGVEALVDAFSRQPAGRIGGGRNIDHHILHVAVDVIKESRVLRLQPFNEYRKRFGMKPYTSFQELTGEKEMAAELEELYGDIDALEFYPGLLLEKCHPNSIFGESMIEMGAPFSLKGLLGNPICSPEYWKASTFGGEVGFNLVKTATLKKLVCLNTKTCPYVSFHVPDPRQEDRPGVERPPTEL
Assay: Inhibition of ovine COX1 assessed as inhibition of PGF2alpha production from PGH2 by enzyme immuno assay
pIC50: −log10 of the molar value.
Metric name: pIC50

a. NS(=O)(=O)c1ccc(NN2C(=O)CSC2c2ccc(F)cc2)cc1 (stereo unspecified)
b. Cc1ccc(C2SCC(=O)N2Nc2ccc(S(N)(=O)=O)cc2)cc1 (stereo unspecified)
Please indicate which has the smaller reported pIC50: a , or b . Indicate your choice by writing its label. b
(b: 4.07, a: 4.38)

P. CS(=O)(=O)c1ccc(NN2C(=O)CSC2c2ccc(F)cc2)cc1 (stereo unspecified)
Q. Cc1ccc(C2SCC(=O)N2Nc2ccc(S(C)(=O)=O)cc2)cc1 (stereo unspecified)
Which value of pIC50 is smaller, the one for P or the one for Q ? Identify your pick by its label. Q
(Q: 3.98, P: 4.20)

P. NS(=O)(=O)c1ccc(NN2C(=O)CSC2c2ccc(Cl)cc2)cc1 (stereo unspecified)
Q. CS(=O)(=O)c1ccc(NN2C(=O)CSC2c2ccccc2)cc1 (stereo unspecified)
P or Q : whose pIC50 is greater? Lab log: write the label of the selected item as the result. P
(P: 4.41, Q: 4.20)

* * *

Target: Prostaglandin G/H synthase 2 (Homo sapiens, UniProt P35354)
Sequence (P35354 whole entry): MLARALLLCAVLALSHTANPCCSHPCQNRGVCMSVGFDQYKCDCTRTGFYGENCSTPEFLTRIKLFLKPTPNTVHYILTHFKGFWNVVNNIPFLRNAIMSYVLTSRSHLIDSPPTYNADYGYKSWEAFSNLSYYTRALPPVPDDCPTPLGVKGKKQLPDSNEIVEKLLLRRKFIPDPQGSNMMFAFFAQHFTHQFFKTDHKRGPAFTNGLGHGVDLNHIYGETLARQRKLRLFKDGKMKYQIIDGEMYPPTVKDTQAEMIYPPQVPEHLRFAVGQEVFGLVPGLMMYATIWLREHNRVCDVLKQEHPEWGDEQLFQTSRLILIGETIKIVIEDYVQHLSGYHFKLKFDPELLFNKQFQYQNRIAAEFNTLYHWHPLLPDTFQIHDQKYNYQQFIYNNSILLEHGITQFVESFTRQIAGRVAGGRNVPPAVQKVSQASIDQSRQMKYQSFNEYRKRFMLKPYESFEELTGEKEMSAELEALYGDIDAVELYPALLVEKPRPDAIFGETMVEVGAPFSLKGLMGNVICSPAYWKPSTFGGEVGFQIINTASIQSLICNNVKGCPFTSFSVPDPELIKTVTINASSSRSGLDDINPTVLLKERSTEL
Experiment: Inhibition of human recombinant COX2 assessed as inhibition of PGF2alpha production from PGH2 by enzyme immunoassay
pIC50: −log10 of the molar value.
Metric name: pIC50

Some solved entries appear below for comparison.
>  <Compound>
CS(=O)(=O)c1ccc(NN2C(=O)CSC2c2ccc(Cl)cc2)cc1 (stereo not given)

>  <Metric name>
pIC50

>  <Reported measurement>
3.91

$$$$
>  <Compound>
NS(=O)(=O)c1ccc(NN2C(=O)CSC2c2ccc(C(F)(F)F)cc2)cc1 (stereo not given)

>  <Metric name>
pIC50

>  <Reported measurement>
4.29

$$$$
>  <Compound>
CS(=O)(=O)c1ccc(NN2C(=O)CSC2c2ccc(C(F)(F)F)cc2)cc1 (stereo not given)

>  <Metric name>
pIC50

>  <Reported measurement>
4.42

$$$$
>  <Compound>
Cc1ccc(C2SCC(=O)N2Nc2ccc(S(C)(=O)=O)cc2)cc1 (stereo not given)

>  <Metric name>
pIC50

>  <Reported measurement>
4.84

$$$$
>  <Compound>
CS(=O)(=O)c1ccc(NN2C(=O)CSC2c2ccccc2)cc1 (stereo not given)

>  <Metric name>
pIC50

>  <Reported measurement>
4.70

$$$$
>  <Compound>
NS(=O)(=O)c1ccc(NN2C(=O)CSC2c2ccc(F)cc2)cc1 (stereo not given)

>  <Metric name>
pIC50

>  <Reported measurement>
4.20

$$$$
>  <Compound>
CS(=O)(=O)c1ccc(NN2C(=O)CSC2c2ccc(F)cc2)cc1 (stereo not given)

>  <Metric name>
pIC50

>  <Reported measurement>
4.34

$$$$
>  <Compound>
NS(=O)(=O)c1ccc(NN2C(=O)CSC2c2ccc(Cl)cc2)cc1 (stereo not given)

>  <Metric name>
pIC50

>  <Reported measurement>
4.34

$$$$

A. Cc1ccc(C2SCC(=O)N2Nc2ccc(S(N)(=O)=O)cc2)cc1 (stereo not given)
B. NS(=O)(=O)c1ccc(NN2C(=O)CSC2c2ccccc2)cc1 (stereo not given)
Record comparison, field pIC50: mark the lower of A and B . Pick one and reply with its label. B

* * *

Assay: Selectivity index, ratio of IC50 for ovine COX1 to IC50 for human recombinant COX2
Metric name: Ratio IC50

Below are worked cases with known answers.
>  <Compound>
NS(=O)(=O)c1ccc(NN2C(=O)CSC2c2ccc(F)cc2)cc1 (stereo not given)

>  <Reported measurement>
0.67

$$$$
>  <Compound>
Cc1ccc(C2SCC(=O)N2Nc2ccc(S(C)(=O)=O)cc2)cc1 (stereo not given)

>  <Reported measurement>
7.27

$$$$
>  <Compound>
CS(=O)(=O)c1ccc(NN2C(=O)CSC2c2ccc(F)cc2)cc1 (stereo not given)

>  <Reported measurement>
1.38

$$$$
>  <Compound>
NS(=O)(=O)c1ccc(NN2C(=O)CSC2c2ccccc2)cc1 (stereo not given)

>  <Reported measurement>
1.23

$$$$
>  <Compound>
NS(=O)(=O)c1ccc(NN2C(=O)CSC2c2ccc(Cl)cc2)cc1 (stereo not given)

>  <Reported measurement>
0.85

$$$$
>  <Compound>
CS(=O)(=O)c1ccc(NN2C(=O)CSC2c2ccc(C(F)(F)F)cc2)cc1 (stereo not given)

>  <Reported measurement>
1.61

$$$$
>  <Compound>
Cc1ccc(C2SCC(=O)N2Nc2ccc(S(N)(=O)=O)cc2)cc1 (stereo not given)

>  <Reported measurement>
3.49

$$$$
>  <Compound>
CS(=O)(=O)c1ccc(NN2C(=O)CSC2c2ccccc2)cc1 (stereo not given)

>  <Reported measurement>
3.16

$$$$

I. NS(=O)(=O)c1ccc(NN2C(=O)CSC2c2ccc(C(F)(F)F)cc2)cc1 (stereo not given)
II. CS(=O)(=O)c1ccc(NN2C(=O)CSC2c2ccc(Cl)cc2)cc1 (stereo not given)
Quick one: lower Ratio IC50, I or II ? Answer by quoting the chosen item's label. II
(II: 0.68, I: 1.05)
